Target: T1, HLA-A*03:01 (human)
T1 construct: recombinant MHC class I molecule incubated with the synthetic peptide (REVEAL, ProImmune)
Experiment: REVEAL MHC-peptide binding assay, recombinant HLA
MEASURED_ATTRIBUTE: In Vitro Score

Previously resolved entries follow.
Name the reported In Vitro Score value associated with the binder FWVHRGRKK (synthetic 9-mer variant; the entry already carries the change)
3.6 % of positive control peptide

Given the entry FWVQRGAKK (synthetic 9-mer variant; the entry already carries the changes) , report its measured In Vitro Score.
2.7 % of positive control peptide

Further cases:
Could you tell me which In Vitro Score is on file for IFWVQRGSK (synthetic 9-mer variant; the entry already carries the changes) ?
20.3 % of positive control peptide
